# Assay remarks: qHTS for Inhibitors of Inflammasome Signaling: IL-1-beta AlphaLISA Primary Screen; further: on the % scale 0 is the no-effect control and ±100 the full control effect
# Conditions used: THP-1 LPS/ATP IL-1B secretion, 16 h; at 57.5 µM, stronger effect = lower value
Among all 360,000 compounds or so, about 17,000 (4.7%) were called active. Another 5% or so got no clear call; they are omitted. The full list was thinned out, with actives kept by preference.
Recorded metric: activity change

CC(C)CC1C(=O)N(Cc2cn(CC3CCCCC3)nn2)CCS(=O)(=O)N1Cc1ccc(-c2ccc(Cl)cc2)cc1 (centres undefined) ... -2.11% (inactive)
C(=N/Nc1cc(N2CCOCC2)nc(N2CCOCC2)n1)/c1ccccc1 ... -78.9% (active)
CC(C)CC1C(=O)N(Cc2cn(Cc3ccco3)nn2)CCS(=O)(=O)N1Cc1ccc(-c2ccc(Cl)c(Cl)c2)cc1 (centres undefined) ... -82.3% (active)
COCOCCn1cc(CN2CCS(=O)(=O)N(Cc3ccc(-c4ccc(OC)cc4)cc3)C(CC(C)C)C2=O)nn1 (centres undefined) ... -56.9% (active)
Cc1ccccc1S(=O)(=O)N1[C@@H](c2cccc(Cl)c2)C(C(=O)OC(C)(C)C)=CC[C@H]1c1ccc(Cl)cc1 ... -7.69% (inactive)
CC1C(=O)N(Cc2cn(Cc3ccco3)nn2)CCS(=O)(=O)N1Cc1ccc(-c2cccc(CO)c2)cc1 (centres undefined) ... -17.1% (inactive)
CCN(CC)CCn1c2c(c(SCC(=O)Nc3ccc(C(C)C)cc3)nc1=O)CCC2 ... 7.71% (inactive)
CCN1CCN(CCNC(=O)c2ccc3c(c2)NC(=O)/C(=C\c2cccc(Cl)c2)S3)CC1 ... 12.3% (inactive)

Consider now this further compound.
Data request: Consider the compound shown here: Fc1ccccc1/C=N/Nc1cc(N2CCCCC2)ncn1 What is its recorded activity change?
Data returned: -12% (inactive)

---

# Assay remarks: qHTS for Inhibitors of Inflammasome Signaling: IL-1-beta AlphaLISA Primary Screen
# Conditions used: THP-1 LPS/ATP IL-1B secretion, 16 h; at 57.5 µM, stronger effect = lower value
The campaign covered roughly 360,000 compounds. About 17,000 (4.7%) were called active. Inconclusive results (about 5%) are left out. Many of the other results were omitted from the sample, so actives are more common in it than they were.
Field: activity change. Provide a value for each of the compounds that follow.

O=C1CCC/C=C\C[C@@H](CC(=O)N(CCO)Cc2ccccc2)C(=O)NCCO1 ... 36.5% (inactive)
CC(=NC1CCN(Cc2ccccc2)CC1)c1c(O)[nH]c(=O)[nH]c1=O ... 4.26% (inactive)
COc1ccc(/C=C/C(=O)OCC(=O)N2CCN(S(=O)(=O)c3ccc(C)cc3C)CC2)cc1OC ... 1.01% (inactive)
O=C1N[C@@H](c2ccccc2)COC(=O)[C@H](Cc2ccc(F)cc2)C/C=C\C[C@@H]1CC(=O)N(CCO)Cc1ccccc1 ... -68.1% (active)
CCc1nc2ccc(C(=O)Nc3ccc(OC)c(OC)c3)cn2c1N(C)C(=O)c1cccc(OC)c1 ... -8.18% (inactive)
O=C1OC[C@@H]2CCCN2C(=O)[C@H](CC(=O)N(CCO)Cc2ccccc2)C/C=C\CC[C@@H]1Cc1ccc(F)cc1 ... -27.7% (inactive)
Cc1ccc(-c2csc(NCCc3nc4cc(Cl)c(Cl)cc4n3CCOCCO)n2)cc1 ... -12.6% (inactive)
CCC(=O)N(Cc1cc2ccccc2[nH]c1=O)c1ccc(OC)cc1 ... -28.7% (inactive)

Please look at the items below and tell me activity change for each one, in order.
1. COC(=O)c1ccc(NC(=O)c2ccccc2NS(=O)(=O)c2ccccc2)cc1
2. O=C(NCc1cccnc1)c1cccc(-c2cc3ccccc3oc2=O)c1

Data returned:
-61.7% (active)
-3.38% (inactive)

---

# Assay remarks: qHTS for Inhibitors of Inflammasome Signaling: IL-1-beta AlphaLISA Primary Screen
# Conditions used: THP-1 LPS/ATP IL-1B secretion, 16 h; at 57.5 µM
# From the text: Inflammasomes are a set of intracellular multi-protein complexes that enable autocatalytic activation of inflammatory caspases and drive the innate immune response to counter harmful agents. […] A qHTS assay, based on AlphaLISA technology, was developed to screen the Molecular Libraries Small Molecule Repository (MLSMR) to look for novel inflammasome inhibitors. The assay detects IL-1B using AlphaLISA anti-IL-1B acceptor and donor beads. […]
Out of some 360,000 compounds screened, about 17,000 (4.7%) were called active. Another 5% or so got no clear call; they are omitted. Rule as the data show it: active = activity change below about -50%; inconclusive = mostly about -30% to -49%; inactive = weaker than that. This excerpt belongs to a sample that is enriched for actives.
Valid outcomes are listed here; reply with one: Yes (active), No (inactive)

Cc1cc(NC(=O)COc2ccc([N+](=O)[O-])cc2)no1 ... No
O=C(Nc1ccc(Br)cn1)c1ccc([N+](=O)[O-])cc1Cl ... No
Cc1cccc(NC(=O)C(C)SCc2ccccc2)c1 (stereo not given) ... No

Data request: Recorded test outcome, item O=C(Nc1ccccc1F)c1cc(S(=O)(=O)N2CCCCC2)cs1
Data returned: No

Data request: Proceed to CCn1c(/C=C/Nc2ccccc2)[n+](CC)c2ccc(C(=O)OCC(F)(F)F)cc21
Data returned: Yes

Data request: Proceed to Cc1cc2c(cc1C)NC1(C[C@H]3CCC(=O)N4CC[C@@H](C1)[C@@H]34)C(=NC(C)(C)CC(C)(C)C)N2 (stereo not given in full)
Data returned: No

Data request: Proceed to CCCCCCN1C[C@@H](O)[C@H](n2cc(COC(=O)c3ccccc3)nn2)C[C@@H]1c1ccc(Cl)cc1
Data returned: No

---

# Assay remarks: qHTS for Inhibitors of Inflammasome Signaling: IL-1-beta AlphaLISA Primary Screen
# Conditions used: THP-1 LPS/ATP IL-1B secretion, 16 h; at 57.5 µM, stronger effect = lower value
The whole screen tested about 360,000 compounds, of which about 17,000 (4.7%) were called active. Another 5% or so got no clear call; they are omitted. The sample as a whole holds a higher share of actives than the screen did.
Field: activity change. Provide a value for each of the compounds that follow.
Answers are plain numbers, in %.

Would you please look over these solved cases?
CCCCCCCCCCOC(=O)Cn1c(COc2cccc(OC)c2)[n+](C)c2ccccc21 ... -79.3
Cc1ccccc1OS(=O)(=O)c1cccc([N+](=O)[O-])c1 ... 27.3
COc1cc(OC)cc(C2=Cc3ccccc3C(CC(=O)c3ccco3)N2c2ccc(-c3cnc(OC)nc3)cc2)c1 (stereo unspecified) ... 3.59
N/C(=N\OC(=O)Cc1ccc([N+](=O)[O-])cc1)c1ccccn1 ... -21.1
CCN1CN(Cc2ccccc2)CNC1=S ... 0.299
O=C(CSc1cccc[n+]1[O-])c1ccc(Cl)cc1 ... -5.03
O=C(COC(=O)c1ccc[nH]c1=O)Nc1ccc2c(c1)OC(F)(F)O2 ... 23.1
Cc1cnc(NC(=O)c2ccccn2)s1 ... -99.9
O=C1c2ccncc2C(=O)N1C1CCCCC1 ... -1.14
CCCC(C(=O)OCCN(CC)CC)(c1ccccc1)c1ccccc1 ... -14.1

Please look at the items below and tell me activity change for each one, in order.
1. COc1ccc2nc(N3CCN(C(=O)c4ccc([N+](=O)[O-])o4)CC3)sc2c1
2. CC1CCN(S(=O)(=O)c2ccc3c(c2)n(C)c(=O)n3C)CC1
3. CCOC(=O)c1ccc(NC(=O)c2nc[nH]c2C(=O)N[C@@H](CCCCNC(=O)OC(C)(C)C)C(=O)OC(C)(C)C)cc1

Data returned:
[-88, -8.4, -62.8]

Please look at the items below and tell me activity change for each one, in order.
1. COc1ccc(CN2C[C@H]3CON(C)[C@H]3C[C@H]2c2ccc(-c3cccc(F)c3)cc2)cc1
2. CCCCCCCCCCOC(=O)Cn1c(COc2ccc(C)cc2)[n+](C)c2ccccc21

Data returned:
1: 11.4; 2: -90.4

Please look at the items below and tell me activity change for each one, in order.
1. Cc1ccc(COc2ccc(C(=O)NN)cc2)cc1
2. O=C(c1ccc2nc(N3CCOCC3)sc2c1)N1CCN(c2ccc(Cl)cc2)CC1
3. Cc1ccc(C(=O)NCCc2nnc(SCC(=O)Nc3cccc(C(=O)O)c3)n2C)cc1

Data returned:
[-17.7, 1.67, 3.07]

Please look at the items below and tell me activity change for each one, in order.
1. CCCCn1nnnc1C(c1ccccc1)N1CCN(c2ccccc2OC)CC1 (stereo unspecified)
2. CC(C)(C)OC(=O)CNC(=O)c1[nH]cnc1C(=O)N[C@@H](CCCCN)C(=O)OC(C)(C)C
3. CCCC(=O)Nc1ncnc2c1ncn2[C@@H]1O[C@@H]2OP(=O)(O)OC[C@H]2[C@H]1OC(=O)CCC

Data returned:
-1.89
-12.6
0

---

# Assay remarks: qHTS for Inhibitors of Inflammasome Signaling: IL-1-beta AlphaLISA Primary Screen
# Conditions used: THP-1 LPS/ATP IL-1B secretion, 16 h; at 57.5 µM, stronger effect = lower value
The whole screen tested about 360,000 compounds, of which about 17,000 (4.7%) were called active. Roughly 5% stayed inconclusive and do not appear here. Shown is part of a subset that was picked to be rich in actives.
Field: activity change. Provide a value for each of the compounds that follow.
Give bare numbers, in %.

Would you please look over these solved cases?
COc1ccc(C(C)(O)c2nc(-c3cc(F)cc(F)c3)cs2)cc1 (stereo not given) ... 42.9
Cc1ccc(S(=O)(=O)N2CCCC2C(=O)OCc2nc3sc(C)c(C)c3c(=O)[nH]2)cc1 (stereo not given) ... -4.97
COc1ccc(C(O)c2nc(-c3ccc4c(c3)OCO4)cs2)cc1 (stereo not given) ... -22.4
Cc1nc(N)sc1-c1ccccc1 ... -26.3
Cn1c(=O)c2c(nc(OCc3cccnc3)n2Cc2ccccc2)n(C)c1=O ... -9.43
COc1ccc(C(O)c2nc(-c3ccc(OC)nc3)cs2)cc1 (stereo not given) ... 36.7
CCOC(=O)COn1c(=O)c(-c2ccc(OCC)cc2)[n+]([O-])c2ccccc21 ... 4.15
COc1ccc(S(=O)(=O)N[C@@H]2C=C[C@@H](CC(=O)N3CCc4ccccc4C3)O[C@@H]2CO)cc1 ... 12.3
O=C(NCc1ccc(F)cc1)c1cc(C2CCCCN2C(=O)c2ccccn2)on1 (stereo not given) ... 42.4

Consider now this further compound.
Data request: Consider the compound shown here: COc1ccc(-c2csc(Cc3nc(O)cs3)n2)cc1 What is its recorded activity change?
Data returned: -95.7

Data provenance: PubChem BioAssay AID743279
